experiment: qHTS assay to identify small molecule HDAC inhibitors (AID 1259364); details: HCT-116 HDAC-Glo I/II luminescence, 2 h; series mostly up to 92.4 µM;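 also: wild-type HCT-116 cells with endogenous class I/II HDAC activity; top concentration of the series differs between compounds; nearly all actives have a fitted effect of over 45% in size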
Records with an inconclusive call do not appear. Activity calls are given as the source filed them. Calls follow the shape of the dose curve; as a rule, active = well fitted inhibition curve with a large enough effect in the repeat runs; inconclusive = weak or mixed curves; inactive = flat fitted curve, though single readings scatter.
Readout Label: outcome

CC(=O)CCC(C)C : inactive
C#C[C@]1(O)CC[C@H]2[C@@H]3CCC4=CC(=O)CC[C@@H]4[C@H]3CC[C@@]21CC : inactive
CC(=O)c1ccc(S(=O)(=O)NC(=O)NC2CCCCC2)cc1 : inactive
CCc1cc(C(N)=S)ccn1 : inactive
CCn1cc(C(=O)O)c(=O)c2ccc(C)nc21 : inactive
C[C@]12CC[C@@H]3c4ccc(O)cc4C[C@@H](CCCCCCCCCS(=O)CCCC(F)(F)C(F)(F)F)[C@H]3[C@@H]1CC[C@@H]2O (some centres undefined) : inactive
COc1ccccc1NC(=O)CC(C)=O : inactive
CC(C)CC(C)CC(O)CC(C)C (centres undefined) : inactive
Cn1cnc2c1c(=O)[nH]c(=O)n2C : inactive
CCN(CC)CCOC(=O)c1ccc(N)cc1 : inactive

Supply outcome value. Item: COc1ccc(O)cc1 inactive

Could you please provide reported outcome for C1CNCCN1 ? Thanks! inactive

Consider the molecule CN/C(=C\[N+](=O)[O-])NCCSCc1ccc(CN(C)C)o1 . State its measured outcome. inactive

* * *

test: A CellTox Green Cytotoxicity Assay to monitor cytotoxicity in HepG2 cells - 8 hour (AID 1224890); settings: CellTox Green fluorescence; series mostly up to 76.8 µM; also: nearly all actives have a fitted effect of over 45% in size
Results filed as inconclusive are left out. Active and inactive are the calls of the source. Calls come from the whole dose curve; as a rule, active = well fitted activation curve with a large enough effect in the repeat runs; inconclusive = weak or mixed curves; inactive = flat fitted curve, though single readings scatter.
Readout Label: outcome

Here's what some known entries look like.
N[C@@H](Cc1c[nH]c2ccc(O)cc12)C(=O)O : inactive
NC(=O)c1ccc([N+](=O)[O-])cc1Cl : inactive
C1CNCCN1 : inactive
CCCCNC(=O)NS(=O)(=O)c1ccc(N)cc1 : inactive
CCn1cc(C(=O)O)c(=O)c2ccc(C)nc21 : inactive
C=CCOC(=O)CC(C)C : inactive
CC(=O)OC/C=C(C)/C=C/C=C(C)/C=C/C1=C(C)CCCC1(C)C : inactive
NC(=O)NO : inactive
CC(C)(C)NCC(O)c1ccc(O)c(CO)c1 (stereo not drawn) : inactive
CC(=O)/C=C/C1=C(C)CCCC1(C)C : inactive

Supply reported outcome belonging to this compound: COc1cc(O)c(C(=O)c2ccccc2)cc1S(=O)(=O)O inactive

Entry CN/C(=C\[N+](=O)[O-])NCCSCc1ccc(CN(C)C)o1 needs its outcome filled in; supply it. inactive

Name the recorded outcome of the item CC(=O)Oc1ccccc1C(=O)O in your answer. inactive

Quickly give me recorded outcome for CC(C)(C)CC(C)(C)c1ccc(O)c(-n2nc3ccccc3n2)c1 inactive

Determine its reported outcome: Nc1ccc(N=Nc2ccccc2)c(N)n1 inactive

Read the entry Cc1cccc(Nc2cc(Cl)nc(SCC(=O)O)n2)c1C and write its reported outcome. inactive

Indicate its recorded outcome; the compound in question is COC(=O)C1CCC(C(=O)OC)CC1 (stereo not drawn) inactive

Return the recorded outcome value; entry: COc1ccc(O)cc1 inactive

// fetch outcome given entry CCN1CCCC1=O inactive

Return outcome (reported value) for this compound: CC(=O)c1ccc(S(=O)(=O)NC(=O)NC2CCCCC2)cc1 inactive

* * *

assay: qHTS assay to identify small molecule antagonists of the vitamin D receptor (VDR) signaling pathway - cell viability counter screen (AID 743225); conditions: VDR-bla HEK293T viability, CellTiter-Glo luminescence, 16 h; series mostly up to 61 µM; also: nearly all actives have a fitted effect of over 50% in size
Results filed as inconclusive are left out. Calls of active or inactive are those of the source. Calls follow the shape of the dose curve; as a rule, active = well fitted cell-killing curve with a large enough effect in the repeat runs; inconclusive = weak or mixed curves, or effect the other way; inactive = no such curve, though single readings can be large or run the other way.
Readout Label: outcome

Check out these entries, answers already filled in.
c1ccc2[nH]c(-c3cscn3)nc2c1 : inactive
CC(=O)c1ccc(S(=O)(=O)NC(=O)NC2CCCCC2)cc1 : inactive
CCCCOC(=O)CCCCCCCCC(=O)OCCCC : inactive
CCN1CCCC1=O : inactive
CCCCOCCOCCOC(C)=O : inactive

# return recorded outcome for input Cc1ccc(O)c(-n2nc3ccccc3n2)c1 inactive

Input COC(=O)c1ccc(O)cc1 , output reported outcome. inactive

Annotate the molecule O=c1cc[nH]c(=O)[nH]1 with its measured outcome. inactive

Report outcome for CCOC(=O)C(C)(C)Oc1ccc(Cl)cc1 inactive

* * *

Assay: qHTS assay to identify small molecule agonists of the androgen receptor (AR) signaling pathway in the presence of an antagonist - cell viability counter screen (AID 1259379);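 also: MDA-kb2 human breast cancer cells carrying an MMTV luciferase reporter; nearly all actives have a fitted effect of over 25% in size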
Conditions: MDA-kb2 viability, CellTiter-Fluor, 16 h; series mostly up to 92.4 µM
Excerpt: National Center for Advancing Translational Sciences [NCATS] NIH Chemical Genomics Center [NCGC] U.S. Environmental Protection Agency [EPA] National Institutes of Environmental Health Sciences [NIEHS] National Toxicology Program [NTP] U.S. Food and Drug Administration [FDA] Androgen receptor (AR) is an important member of nuclear receptor family. Its signaling plays a critical role in AR-dependent prostate cancer and other androgen related diseases. […]
Inconclusive results are not listed. Calls of active or inactive are those of the source. Calls follow the shape of the dose curve; as a rule, active = well fitted cell-killing curve with a large enough effect in the repeat runs; inconclusive = weak or mixed curves, or effect the other way; inactive = flat fitted curve, though single readings scatter.
Readout Label: outcome

Look over these answered cases.
O=c1c(-c2ccc(O)cc2)coc2cc(O)cc(O)c12 : inactive
N[C@@H](Cc1c[nH]c2ccccc12)C(=O)O : inactive
CCCCOC(=O)CCCCCCCCC(=O)OCCCC : inactive
Cc1cnc(NC(=O)C2=C(O)c3ccccc3S(=O)(=O)N2C)s1 : inactive
NC(=O)NO : inactive
C[C@]12C[C@H](O)[C@H]3[C@@H](CCC4=CC(=O)CC[C@@]43C)[C@@H]1CC[C@@H]2C(=O)CO : inactive
CCCCCCCC(=O)OCC(O)CO (stereo not drawn) : inactive
NC(=O)N/N=C/c1ccc([N+](=O)[O-])o1 : inactive
O=C1CCCCCN1 : inactive
Oc1cccc(O)c1 : inactive

--- query ---
State its outcome: COc1ccccc1NC(=O)CC(C)=O inactive

* * *

test: qHTS RealTime-Glo MT Cell Viability Assay in HEK293 cells - 16 hour (AID 1224872); details: RealTime-Glo luminescence; series mostly up to 76.8 µM; also: nearly all actives have a fitted effect of over 50% in size
Inconclusive results are not listed. Active and inactive are the calls of the source. The call rests on the fitted dose curve; in most records, active means well fitted cell-killing curve with a large enough effect in the repeat runs; inconclusive means weak or mixed curves, or effect the other way; inactive means flat fitted curve, though single readings scatter.
Hello, when you answer, please use one of the following outcomes: 1 (active), 0 (inactive)

GET /call?item= CCCCC/C(C=O)=C\c1ccccc1 returns the recorded outcome of this test. 0

// outcome(item) with item = CC(C)(C)NCC(O)c1ccc(O)c(CO)c1 (stereo unspecified) 0

Give the logged outcome of this assay for the following molecule: C[C@]12C=CC(=O)C=C1CC[C@@H]1[C@@H]2C(=O)C[C@@]2(C)[C@H]1CC[C@]2(O)C(=O)CO 0

Called result for Cc1c(N(C)C)c(=O)n(-c2ccccc2)n1C 0

Hey, what did the test say about CN(C)C=O ? 0

How did this test come out for COC(=O)c1ccc(C=O)cc1 ? 0

What classification did COC1=CC(=O)C[C@@H](C)[C@]12Oc1c(Cl)c(OC)cc(OC)c1C2=O end up with in this test? 0

Lab log entry: C[C@]12CC[C@@H]3c4ccc(O)cc4C[C@@H](CCCCCCCCCS(=O)CCCC(F)(F)C(F)(F)F)[C@H]3[C@@H]1CC[C@@H]2O (stereo partly specified) — outcome as called in the assay? 1

// outcome(item) with item = C/C=C/c1ccc(O)c(OC)c1 0

Which outcome did this test record for the molecule C=CC(=O)NC(C)(C)CS(=O)(=O)O ? 0

// return assay outcome for Cn1cnc2c1c(=O)[nH]c(=O)n2C 0

* * *

assay: qHTS assay to test for compound auto fluorescence at 590 nm (red) in HepG2 cell free culture (AID 720684); details: cell-free medium autofluorescence, red 540/590 nm; series mostly up to 91.3 µM
Active and inactive are the calls of the source. Calls come from the whole dose curve; as a rule, active = well fitted curve in the direction sought with a large enough effect in the repeat runs; inconclusive = weak or mixed curves; inactive = flat fitted curve, though single readings scatter.
Readout Label: outcome

The following molecules have reported results that may help.
Cc1cccc(C)c1O : inactive
CN(C)Cc1cc(CN(C)C)c(O)c(CN(C)C)c1 : inactive
COc1ccc(O)cc1 : inactive
Cc1ccc(O)c(-n2nc3ccccc3n2)c1 : inactive
C[C@]12C=CC(=O)C=C1CC[C@@H]1[C@@H]2C(=O)C[C@@]2(C)[C@H]1CC[C@]2(O)C(=O)CO : inactive
C1CNCCN1 : inactive
CCOCCO : inactive
Cc1c(N(C)CS(=O)(=O)O)c(=O)n(-c2ccccc2)n1C : inactive
Cc1cccc2ccccc12 : inactive
O=c1c(-c2ccc(O)cc2)coc2cc(O)cc(O)c12 : inactive

Give the measured outcome for CC(O)COc1ccccc1 (stereo not given) inactive

Look up and state reported outcome for CCCCCCCC(=O)OCC(O)CO (stereo not given) inactive

Return the recorded outcome value; entry: CC(C)=CCC/C(C)=C/CO inactive

# return recorded outcome for entry C[C@]12CC[C@@H]3c4ccc(O)cc4C[C@@H](CCCCCCCCCS(=O)CCCC(F)(F)C(F)(F)F)[C@H]3[C@@H]1CC[C@@H]2O (stereo not given in full) inactive

Complete the entry with outcome for CC(=O)Oc1ccccc1C(=O)O inactive
